targetOfAssay: recombinant human Cox-1 (r-hu Cox1) (Homo sapiens)
Sequence (P23219 24-599): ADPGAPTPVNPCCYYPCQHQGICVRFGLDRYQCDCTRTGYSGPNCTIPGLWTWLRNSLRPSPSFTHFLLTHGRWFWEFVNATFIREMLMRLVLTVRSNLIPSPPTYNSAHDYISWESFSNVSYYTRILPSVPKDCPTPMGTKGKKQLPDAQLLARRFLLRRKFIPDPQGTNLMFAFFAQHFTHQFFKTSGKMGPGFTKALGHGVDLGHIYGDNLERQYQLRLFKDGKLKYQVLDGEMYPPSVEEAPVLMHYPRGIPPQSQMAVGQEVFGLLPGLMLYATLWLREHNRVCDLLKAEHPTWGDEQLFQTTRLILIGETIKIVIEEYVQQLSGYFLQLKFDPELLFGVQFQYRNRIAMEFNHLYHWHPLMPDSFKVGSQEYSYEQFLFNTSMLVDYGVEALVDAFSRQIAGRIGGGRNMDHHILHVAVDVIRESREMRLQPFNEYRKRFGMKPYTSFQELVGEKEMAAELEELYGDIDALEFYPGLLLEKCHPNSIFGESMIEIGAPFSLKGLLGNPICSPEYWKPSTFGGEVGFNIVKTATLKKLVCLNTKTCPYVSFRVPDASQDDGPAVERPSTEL
assayDetails: Recombinant human PGHS-1 enzyme assay (RHUCX1)
conditionLabel: read-out: RHUCX1 IC50 (parenthetical value)
So I've got a bunch of molecules here, and I need their IC50 values.
Write the figure, then the unit, nothing else.

## Task Provide IC50, recorded with recombinant human Cox-1 (r-hu Cox1) (Homo sapiens), of CC(c1cccc(F)c1)n1ncc(-c2ccc(S(N)(=O)=O)cc2)c(-c2ccc(F)cc2)c1=O (centres unmarked)
## Result 58 nM

## Task Provide IC50, recorded with recombinant human Cox-1 (r-hu Cox1) (Homo sapiens), of "CC(C)COc1c(-c2ccc(S(N)(=O)=O)cc2)cnn(-c2ccc(F)c(F)c2)c1=O"
## Result 151000 nM

## Task Provide IC50, recorded with recombinant human Cox-1 (r-hu Cox1) (Homo sapiens), of "CC(C)(O)CCOc1c(-c2ccc(S(C)(=O)=O)cc2)cnn(-c2ccc(F)c(F)c2)c1=O"
## Result 3680 nM

## Task Provide IC50, recorded with recombinant human Cox-1 (r-hu Cox1) (Homo sapiens), of "NS(=O)(=O)c1ccc(-c2cnn(CC=C(Cl)Cl)c(=O)c2-c2ccc(F)cc2)cc1"
## Result 178 nM

## Task Provide IC50, recorded with recombinant human Cox-1 (r-hu Cox1) (Homo sapiens), of "CC(C)CCCc1c(-c2ccc(S(C)(=O)=O)cc2)cnn(-c2cccc(Cl)c2)c1=O"
## Result 269 nM

## Task Provide IC50, recorded with recombinant human Cox-1 (r-hu Cox1) (Homo sapiens), of "CS(=O)(=O)c1ccc(-c2cnn(-c3ccc(Cl)c(F)c3)c(=O)c2-c2ccc(F)cc2)cc1"
## Result 1880 nM

## Task Provide IC50, recorded with recombinant human Cox-1 (r-hu Cox1) (Homo sapiens), of CC(c1cc(F)cc(F)c1)n1ncc(-c2ccc(S(N)(=O)=O)cc2)c(-c2ccc(F)cc2)c1=O (centres unmarked)
## Result 67 nM

## Task Provide IC50, recorded with recombinant human Cox-1 (r-hu Cox1) (Homo sapiens), of "NS(=O)(=O)c1ccc(-c2cnn(CC3=CCCCC3)c(=O)c2-c2ccc(F)cc2)cc1"
## Result 238 nM

## Task Provide IC50, recorded with recombinant human Cox-1 (r-hu Cox1) (Homo sapiens), of "CC(C)CCOc1c(-c2ccc(S(N)(=O)=O)cc2)cnn(-c2ccc(F)c(F)c2)c1=O"
## Result 56600 nM

## Task Provide IC50, recorded with recombinant human Cox-1 (r-hu Cox1) (Homo sapiens), of "NS(=O)(=O)c1ccc(-c2cnn(-c3ccc(F)c(Cl)c3)c(=O)c2-c2ccc(F)cc2)cc1"
## Result 753 nM

## Task Provide IC50, recorded with recombinant human Cox-1 (r-hu Cox1) (Homo sapiens), of "C/C(=C\Cn1ncc(-c2ccc(S(N)(=O)=O)cc2)c(-c2ccc(F)cc2)c1=O)C(F)(F)F"
## Result 126 nM

## Task Provide IC50, recorded with recombinant human Cox-1 (r-hu Cox1) (Homo sapiens), of "CS(=O)(=O)c1ccc(-c2cnn(-c3ccc(F)c(F)c3)c(=O)c2-c2ccc(F)cc2)cc1"
## Result 5010 nM

## Task Provide IC50, recorded with recombinant human Cox-1 (r-hu Cox1) (Homo sapiens), of "CC(=O)NS(=O)(=O)c1ccc(-c2cnn(CC(F)(F)F)c(=O)c2OCC(C)(C)CO)cc1"
## Result 3400 nM

## Task Provide IC50, recorded with recombinant human Cox-1 (r-hu Cox1) (Homo sapiens), of CC(/C=C/Cl)n1ncc(-c2ccc(S(N)(=O)=O)cc2)c(-c2ccc(F)cc2)c1=O (centres unmarked)
## Result 3060 nM
